B1: Far upstream element-binding protein 2, residues 142 to 214; numbered along this chain, Q92945 (parent)
chain: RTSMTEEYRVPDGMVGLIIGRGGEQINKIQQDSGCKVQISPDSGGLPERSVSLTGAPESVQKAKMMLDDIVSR

- Variants of: B1
- PROCEDURE_SUMMARY: abundance fitness (aPCA) (normalised: wild type 0, dead -1); higher = more abundant; growth selection in yeast, the domain comes from the species named
- SETUP_CONDITIONS: Homo sapiens
The label depends only on abundance fitness: 1 (yes) if it is at least -0.1, 0 (no) if it is smaller.

Does abundance fitness meet or surpass -0.1 for "S59G" ?
0 (no)

Does abundance fitness meet or surpass -0.1 for "K28N" ?
0 (no)

Does abundance fitness meet or surpass -0.1 for "P57C" ?
0 (no)

Does abundance fitness meet or surpass -0.1 for "S43D" ?
1 (yes)

Does abundance fitness meet or surpass -0.1 for "E48L" ?
0 (no)

Does abundance fitness meet or surpass -0.1 for "G45C" ?
0 (no)

Does abundance fitness meet or surpass -0.1 for "V60I" ?
1 (yes)

Does abundance fitness meet or surpass -0.1 for "S43W" ?
0 (no)

Does abundance fitness meet or surpass -0.1 for "G55W" ?
0 (no)

Does abundance fitness meet or surpass -0.1 for "V51R" ?
0 (no)

Does abundance fitness meet or surpass -0.1 for "V71R" ?
0 (no)

Does abundance fitness meet or surpass -0.1 for "L67W" ?
0 (no)

Does abundance fitness meet or surpass -0.1 for "S40P" ?
1 (yes)

Does abundance fitness meet or surpass -0.1 for "K62M" ?
1 (yes)

Does abundance fitness meet or surpass -0.1 for "G23R" ?
0 (no)

Does abundance fitness meet or surpass -0.1 for "V37G" ?
0 (no)

Does abundance fitness meet or surpass -0.1 for "D69W" ?
0 (no)

Does abundance fitness meet or surpass -0.1 for "P47I" ?
0 (no)

Does abundance fitness meet or surpass -0.1 for "L53Q" ?
0 (no)

Does abundance fitness meet or surpass -0.1 for "G34Q" ?
0 (no)

Does abundance fitness meet or surpass -0.1 for "E48D" ?
1 (yes)

Does abundance fitness meet or surpass -0.1 for "E48S" ?
1 (yes)

Does abundance fitness meet or surpass -0.1 for "D32A" ?
1 (yes)

Does abundance fitness meet or surpass -0.1 for "L67N" ?
0 (no)

Does abundance fitness meet or surpass -0.1 for "I70W" ?
0 (no)

Does abundance fitness meet or surpass -0.1 for "R73A" ?
1 (yes)

Does abundance fitness meet or surpass -0.1 for "L53Y" ?
0 (no)

Does abundance fitness meet or surpass -0.1 for "P57R" ?
0 (no)

Does abundance fitness meet or surpass -0.1 for "Q31H" ?
1 (yes)

Does abundance fitness meet or surpass -0.1 for "Q30Y" ?
0 (no)

Does abundance fitness meet or surpass -0.1 for "D42A" ?
1 (yes)

Does abundance fitness meet or surpass -0.1 for "G55D" ?
0 (no)

Does abundance fitness meet or surpass -0.1 for "G44D" ?
1 (yes)

Does abundance fitness meet or surpass -0.1 for "Q25K" ?
0 (no)

Does abundance fitness meet or surpass -0.1 for "V51Q" ?
0 (no)

Does abundance fitness meet or surpass -0.1 for "G44A" ?
1 (yes)

Does abundance fitness meet or surpass -0.1 for "R21Q" ?
1 (yes)

Does abundance fitness meet or surpass -0.1 for "S43Q" ?
1 (yes)

Does abundance fitness meet or surpass -0.1 for "I29F" ?
0 (no)

Does abundance fitness meet or surpass -0.1 for "G55T" ?
0 (no)

Does abundance fitness meet or surpass -0.1 for "K36Q" ?
1 (yes)

Does abundance fitness meet or surpass -0.1 for "I39W" ?
0 (no)

Does abundance fitness meet or surpass -0.1 for "V60L" ?
0 (no)

Does abundance fitness meet or surpass -0.1 for "R49E" ?
0 (no)
